Attribution: patent US11260042B2

# Test system: MiaPaca2 (human pancreatic carcinoma)
# method description: Cell viability (MTT) of ABTL0812 alone or with gemcitabine in pancreatic cancer
# Assay type: cell-based
# stated conditions: Homo sapiens, MIA PaCa-2; MiaPaca2, 72h, 0.5% FBS, MTT, single agent
reported endpoint: pIC50
One number for each entry, as −log10 of the molar value.

Exercise: Give the reported pIC50 for this compound. Nc1ccn([C@@H]2O[C@H](CO)[C@@H](O)C2(F)F)c(=O)n1 [Gemcitabine, reference compound]
Key: 4.99
